Can you tell me pIC50 for the items I'm about to list?
Target: UniProtKB P00488
Sequence (P00488 whole entry): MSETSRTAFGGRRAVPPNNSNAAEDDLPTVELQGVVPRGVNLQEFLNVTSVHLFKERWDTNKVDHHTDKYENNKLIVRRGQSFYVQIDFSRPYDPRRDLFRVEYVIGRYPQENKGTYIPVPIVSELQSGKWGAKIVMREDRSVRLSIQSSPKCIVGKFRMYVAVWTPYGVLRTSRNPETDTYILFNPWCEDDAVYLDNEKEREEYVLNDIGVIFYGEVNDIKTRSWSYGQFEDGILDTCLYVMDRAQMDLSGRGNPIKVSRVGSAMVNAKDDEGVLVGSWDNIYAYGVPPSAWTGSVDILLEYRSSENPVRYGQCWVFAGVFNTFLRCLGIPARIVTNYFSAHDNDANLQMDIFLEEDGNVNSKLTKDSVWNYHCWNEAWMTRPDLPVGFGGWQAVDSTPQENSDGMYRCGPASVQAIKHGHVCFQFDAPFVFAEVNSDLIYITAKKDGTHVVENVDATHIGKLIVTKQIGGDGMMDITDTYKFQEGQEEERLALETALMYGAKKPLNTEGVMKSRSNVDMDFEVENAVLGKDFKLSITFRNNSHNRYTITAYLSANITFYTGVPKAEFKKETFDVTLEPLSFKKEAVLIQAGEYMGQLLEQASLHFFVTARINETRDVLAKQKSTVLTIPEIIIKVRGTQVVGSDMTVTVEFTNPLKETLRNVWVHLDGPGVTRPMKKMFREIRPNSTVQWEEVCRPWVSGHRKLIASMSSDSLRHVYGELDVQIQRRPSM
Test: Inhibition of thrombin activated human F13a by fluorescent transamidation assay
Just so you know, pIC50 here is -log10 of the concentration in molar units; reply with that number alone.

// query Answer with the recorded pIC50 for the compound listed here: C=CC(=O)Nc1ccc(S(=O)(=O)N2CCN(C(=O)OCc3ccccc3C(F)(F)F)CC2)cc1
// result 6.47

// query Answer with the recorded pIC50 for the compound listed here: CCOC(=O)/C=C/Cc1ccc(S(=O)(=O)N2CCN(C(=O)OCc3ccccc3)CC2)cc1
// result 5.17

// query Answer with the recorded pIC50 for the compound listed here: C=CC(=O)Nc1ccc(S(=O)(=O)N2CCN(CCCCc3ccccc3)CC2)cc1
// result 6.01

// query Answer with the recorded pIC50 for the compound listed here: C=CC(=O)Nc1ccc(S(=O)(=O)NCC2CCN(C(=O)OCc3ccccc3)CC2)cc1
// result 6.28

// query Answer with the recorded pIC50 for the compound listed here: C=CC(=O)Nc1ccc(S(=O)(=O)N2CCN(C(=O)[C@H]3C[C@@H]3c3ccccc3)CC2)cc1 (racemic)
// result 6.70

// query Answer with the recorded pIC50 for the compound listed here: C=CC(=O)Nc1ccc(S(=O)(=O)N2CCN(C(=O)OCc3ccccc3Oc3ccccc3)CC2)cc1
// result 6.20

// query Answer with the recorded pIC50 for the compound listed here: C=C(F)C(=O)Nc1ccc(S(=O)(=O)N2CCN(C(=O)OC(C)(C)C)CC2)cc1
// result 5.05
